Items are presented alongside their recorded %Inh.
# System: AMPK-alpha1;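 further: KINOMEscan kinase panel screen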
# Construct: gene PRKAA1
# Recorded Conditions: concentration: 1 μM, replicates: in singlicate; n = 1
Report the figure in % without appending any unit label.

Worked cases, %Inh given:
> print(dat)
                                   compound  assayed.target  observed.measurement
1       CC(C)(C)c1ccc(-n2cnc3c(N)ncnc32)cc1     AMPK-alpha1                    14
2  CS(=O)(=O)CCNCc1nc(-c2ccc3ncnc(Nc4ccc(OCc5cccc(F)c5)c(Cl)c4)c3c2)cs1.Cl     AMPK-alpha1                     0
3               CCC(CC)(CC)n1cnc2c(N)ncnc21     AMPK-alpha1                     8
4  O=C(Nc1n[nH]c2nc(-c3ccco3)c(Br)cc12)c1ccc(CN2CCCC2)cc1.O=C(O)[C@H](O)[C@@H](O)C(=O)O     AMPK-alpha1                     0
5  COC(=O)c1c(-c2ccccc2)c2cc(Cl)ccc2c(=O)n1Cc1ccc(S(C)(=O)=O)cc1     AMPK-alpha1                     7

Short answer on AMPK-alpha1 for Clc1cccc(-c2nc(Nc3ccncc3)c3ccccc3n2)c1 , %Inh: 30

Short answer on AMPK-alpha1 for Clc1cc(Nc2ncnc3cc[nH]c23)ccc1OCc1ccccn1 , %Inh: 20

Short answer on AMPK-alpha1 for OCCOCCn1ccc2ncnc(Nc3ccc(Oc4cccc(Cl)c4)c(Cl)c3)c21 , %Inh: 0

Short answer on AMPK-alpha1 for O=C(Nc1ccccc1F)NC1CCN(c2ccnc(Nc3ccc(F)cc3)n2)C1 (stereo not shown) , %Inh: 2

Short answer on AMPK-alpha1 for O=C(c1ccc(-c2cc(-c3c[nH]nc3-c3ccccn3)ccn2)cc1)N1CCCC1 , %Inh: 0

The measurements presented in this section are drawn from paper PMC5540273.
